System: Human immunodeficiency virus 1
protocol-details: Antiviral activity against HIV1 replication in CEM cell line
Assay type: functional, organism-based
test-conditions: Human immunodeficiency virus 1, CCRF-CEM
measure: EC50 (nM)
API: value field is a number in nM; no unit string.

Some compounds with recorded EC50:
compound	measure	observed-result
COc1ccc(/C=N/c2nc(NC3CC3)c3ncn(C4C=CC(CO)C4)c3n2)cc1 (configuration not stated)	EC50	360
O=[N+]([O-])c1ccccc1/C=N/c1nc(NC2CC2)c2ncn(C3C=CC(CO)C3)c2n1 (configuration not stated)	EC50	480
O=C1Nc2ccc(F)cc2/C1=N\c1nc(NC2CC2)c2ncn(C3C=CC(CO)C3)c2n1 (configuration not stated)	EC50	6200
CN(C)c1ccc(/C=N/c2nc(NC3CC3)c3ncn(C4C=CC(CO)C4)c3n2)cc1 (configuration not stated)	EC50	60
COc1ccc(/C=N/c2nc(NC3CC3)c3ncn(C4C=CC(CO)C4)c3n2)c(O)c1 (configuration not stated)	EC50	1200

## Task Lab note: need EC50 for Cc1ccc(/C=N/c2nc(NC3CC3)c3ncn(C4C=CC(CO)C4)c3n2)cc1 (configuration not stated) on Human immunodeficiency virus 1, anyone have it?
## Result 50

## Task Identify the measured EC50 of C/C(=N\c1nc(NC2CC2)c2ncn(C3C=CC(CO)C3)c2n1)c1ccc(O)cc1 (configuration not stated) for Human immunodeficiency virus 1.
## Result 1900

## Task Checklist item: EC50 tested on Human immunodeficiency virus 1, entry Cc1ccc2c(c1)/C(=N\c1nc(NC3CC3)c3ncn(C4C=CC(CO)C4)c3n1)C(=O)N2 (configuration not stated) , value?
## Result 2100

## Task Hello, I am looking for reported EC50 with Human immunodeficiency virus 1 for O=C1Nc2ccccc2/C1=N\c1nc(NC2CC2)c2ncn(C3C=CC(CO)C3)c2n1 (configuration not stated) . Could you help?
## Result 5000

## Task Find EC50 (Human immunodeficiency virus 1) for the entry Nc1nc(NC2CC2)c2ncn([C@H]3C=C[C@@H](CO)C3)c2n1
## Result 1600

## Task Observed EC50 on Human immunodeficiency virus 1 for O=[N+]([O-])c1ccc(/C=N/c2nc(NC3CC3)c3ncn(C4C=CC(CO)C4)c3n2)cc1 (configuration not stated) , please.
## Result 520

## Task Lookup: EC50 / Human immunodeficiency virus 1 / OCC1C=CC(n2cnc3c(NC4CC4)nc(/N=C(\c4ccccc4)c4ccc(Br)cc4)nc32)C1 (configuration not stated)
## Result 3700
